# Test Name: qHTS assay for small molecule antagonists of peroxisome proliferator-activated receptor delta signaling (AID 588535);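 also: cells co-treated with a PPAR-delta agonist as stimulator during compound exposure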
# Conditions: HEK293T PPARd-UAS-bla, beta-lactamase FRET ratio, 18 h; 460 nm channel
Results filed as inconclusive are left out.
Reported Property: max response (%)
Report only the number, with the unit % understood.

Could you tell me which max response is on file for CCCC(O)C(CC)CO (stereo not drawn) ?
2.27

Entry FC(F)(F)C(Cl)Br (stereo not drawn) : reported max response = ?
-35.1

Give its max response value. Item: `CCN(CC)C(=O)c1cccc(C)c1`
-21.8

I am curious: what max response value has been reported for `C=CCNC(N)=S` ?
13.5

Could you share which max response value was measured for `CCCCCCCC(=O)OCC(COC(=O)CCCCCCC)OC(=O)CCCCCCC` ?
17.8

Consider the compound `CCCCCCCCCCCCCCCCCCO` and give its measured max response.
2.82

Field request: max response | item: `CC(C)=CCC/C(C)=C/CO`
-8.02

Could you tell me which max response is on file for `CC(=O)NS(=O)(=O)c1ccc(N)cc1` ?
26.9

For `CCCCCC(N)=O` , what is its reported max response?
-31.8

// max response lookup, key: CC1CC(OC(=O)c2ccccc2O)CC(C)(C)C1 (stereo not drawn)
23.9

Fill blank: measured max response of the compound `Cc1cc(O)cc(C)c1Cl` is ____.
24.1

What value of measured max response is listed for O=C(O)CCCCC1CCSS1 (stereo not drawn) ?
4.26

Entry under review: `O=C1C(c2[nH]c3ccccc3c2O)=Nc2ccccc21` . Reported max response?
32.9
